The reported numbers originate from ChEMBL document CHEMBL3988442.

A collection of compounds and their measured Percent Effect
- Test system: Wolbachia pipientis
- EXPERIMENT: Anti-Wolbachia Cell-Based Screen
- Format: functional
- Parameters: scale not given: in the data most compounds retested in dose-response had high values
- CONDITIONS: 5 µM
Screen size: about 48,000 compounds; about 13,000 (27%) showed an effect of 50% or more. Some of the results follow.
The response must be a number in % with no trailing unit.

Look over these answered cases.
**Q:** So what's the measured Percent Effect for this one? O=C1CCCN1Cc1nnc2n1CCN(Cc1ccco1)C2
**A:** 88.52

**Q:** So what's the measured Percent Effect for this one? Cc1nc(Cn2cncc(Br)c2=O)no1
**A:** 4.078

**Q:** So what's the measured Percent Effect for this one? O=C(O)C(F)(F)F.O=C(O)C(F)(F)F.c1ccc(CN2CCc3nnc(CN4CCCCC4)n3CC2)nc1
**A:** -3.311

**Q:** So what's the measured Percent Effect for this one? O=C(O)C(F)(F)F.O=C(O)C(F)(F)F.c1ccc(OCc2nnc3n2CCN(Cc2ccco2)C3)nc1
**A:** 6.411

**Q:** So what's the measured Percent Effect for this one? c1cnc(OCc2nnc3n2CCN(Cc2ccco2)C3)nc1
**A:** -5.792

***
**Q:** So what's the measured Percent Effect for this one? Cc1ccccc1SC1CCN(C(=O)C2CNC(=O)N2)CC1 (stereo not given)
**A:** 2.436

**Q:** So what's the measured Percent Effect for this one? CC(C)N(C)C(=O)c1ccc(Cl)c(NC(=O)COCC2CC2)c1
**A:** -4.037

**Q:** So what's the measured Percent Effect for this one? Cc1ccsc1[C@@H]1CCN(C(=O)Cn2cc3ccccc3n2)C[C@H]1O
**A:** -6.576

**Q:** So what's the measured Percent Effect for this one? CN(C)C(=O)NCc1ncn2c1CN(Cc1ccco1)CCC2.O=C(O)C(F)(F)F
**A:** -2.342

**Q:** So what's the measured Percent Effect for this one? COCCOC[C@]1(CNCc2ccc(OC)cc2)C[C@@H](O)[C@@H](O)C1.Cl
**A:** 6.755

* * *

- Test system: Wolbachia pipientis
- EXPERIMENT: Anti-Wolbachia Cell-Based Screen
- Assay type: functional
- Parameters: scale not given: in the data most compounds retested in dose-response had high values
- CONDITIONS: 5 µM
Screen size: about 48,000 compounds; about 13,000 (27%) showed an effect of 50% or more. This is one part of the list.
ENDPOINT LABEL: Percent Effect (%)
The response must be a number in % with no trailing unit.

Look over these answered cases.
**Q:** So what's the measured Percent Effect for this one? Cc1nnc(CN(C)CC(=O)N2CCCN(C3CCCC3)CC2)n1C
**A:** -1.28

**Q:** So what's the measured Percent Effect for this one? CN(C)Cc1noc2c1CN(Cc1ccc[nH]1)CC2
**A:** 98.7

**Q:** So what's the measured Percent Effect for this one? O=C(O)c1cn(CC2CCCN(c3nc4ccccc4s3)C2)nn1 (stereo unspecified)
**A:** -26.21

**Q:** So what's the measured Percent Effect for this one? CNC(=O)Cn1nnc(-c2cc3ccccc3o2)n1
**A:** -5.513

**Q:** So what's the measured Percent Effect for this one? CC(=O)NCc1noc2c1CN(Cc1cccs1)CC2
**A:** -5.877

***
**Q:** So what's the measured Percent Effect for this one? O=C(O)C(F)(F)F.c1csc(CN2CCc3onc(Cn4cccc4)c3C2)c1
**A:** -13.64

* * *

- Test system: Wolbachia pipientis
- EXPERIMENT: Anti-Wolbachia Cell-Based Screen
- Assay type: functional
- Set-up: scale not given: in the data most compounds retested in dose-response had high values
- CONDITIONS: 5 µM
About 13,000 (27%) of roughly 48,000 compounds showed an effect of 50% or more. The list shows a part of the results.
ENDPOINT LABEL: Percent Effect (%)
The response must be a number in % with no trailing unit.

**Q:** Hello, I am looking for reported Percent Effect with Wolbachia pipientis for CNC(=O)N1CC[C@@H]2CN(CCc3cccc(OC)c3)S(=O)(=O)[C@@H]2CC1 . Could you help?
**A:** -2.748

**Q:** Hello, I am looking for reported Percent Effect with Wolbachia pipientis for CC(=O)N1CCC(c2ccnc(Nc3cc(C(F)(F)F)ccn3)n2)C1 (stereo unspecified) . Could you help?
**A:** 158.6

**Q:** Hello, I am looking for reported Percent Effect with Wolbachia pipientis for O=C(Cn1cc(-c2ccccc2)ncc1=O)Nc1ccncc1 . Could you help?
**A:** 8.409

***
**Q:** Hello, I am looking for reported Percent Effect with Wolbachia pipientis for COCCOC1CCN(C(=O)NCc2coc3ccccc23)CC1 . Could you help?
**A:** -1.148

**Q:** Hello, I am looking for reported Percent Effect with Wolbachia pipientis for O=C(Cn1c(=O)nc2n1C(=O)N(c1ccccc1)C2)Nc1ccccc1 . Could you help?
**A:** 2.08

**Q:** Hello, I am looking for reported Percent Effect with Wolbachia pipientis for COCCN1CCN(CC(=O)N(C)Cc2ccc(C)o2)CC1C (stereo unspecified) . Could you help?
**A:** 6.475

**Q:** Hello, I am looking for reported Percent Effect with Wolbachia pipientis for Cc1cc(=O)n(CC(=O)Nc2cccc(Cl)c2)nc1C . Could you help?
**A:** -4.372

**Q:** Hello, I am looking for reported Percent Effect with Wolbachia pipientis for CC(C)NC(=O)N1CC[C@@H]2CN(Cc3cccc(Cl)c3)S(=O)(=O)[C@@H]2CC1 . Could you help?
**A:** -12.85

**Q:** Hello, I am looking for reported Percent Effect with Wolbachia pipientis for CC(C)n1c(=O)c2sccc2n(CC(=O)Nc2ccccc2)c1=O . Could you help?
**A:** 126.1

**Q:** Hello, I am looking for reported Percent Effect with Wolbachia pipientis for CCOCC1CN(Cc2cnn(C)c2)Cc2ncn(CC3CC3)c21 (stereo unspecified) . Could you help?
**A:** -8.097

**Q:** Hello, I am looking for reported Percent Effect with Wolbachia pipientis for COc1ccc(CNC(=O)CNc2cc3c(cc2Cl)OCCO3)cc1 . Could you help?
**A:** 11.87

**Q:** Hello, I am looking for reported Percent Effect with Wolbachia pipientis for COc1ccc(Cc2ncc3c(n2)CN(C(=O)CCO)C3)cc1 . Could you help?
**A:** -39.39

**Q:** Hello, I am looking for reported Percent Effect with Wolbachia pipientis for Cc1ncccc1CNC(CCO)C1CCCCC1 (stereo unspecified) . Could you help?
**A:** 3.816

**Q:** Hello, I am looking for reported Percent Effect with Wolbachia pipientis for COc1cccc(Cn2c(=O)n(C)c(=O)c3sccc32)c1 . Could you help?
**A:** -18.58

**Q:** Hello, I am looking for reported Percent Effect with Wolbachia pipientis for CC(C)COCC1CN(Cc2ccoc2)Cc2ncn(C)c21 (stereo unspecified) . Could you help?
**A:** 128.9

**Q:** Hello, I am looking for reported Percent Effect with Wolbachia pipientis for CCn1c(=O)c2sccc2n(CC(=O)Nc2cccc(Cl)c2)c1=O . Could you help?
**A:** 148.7

* * *

A collection of compounds and their measured Percent Effect
- System: Wolbachia pipientis
- EXPERIMENT: Anti-Wolbachia Cell-Based Screen
- Type: functional
- Set-up: scale not given: in the data most compounds retested in dose-response had high values
- CONDITIONS: 5 µM
The campaign covered roughly 48,000 compounds. About 13,000 (27%) showed an effect of 50% or more. The list shows a part of the results.
The response must be a number in % with no trailing unit.

**Q:** So what's the measured Percent Effect for this one? Cc1cnn(CCC(=O)NS(=O)(=O)N2CCc3ccccc32)c1
**A:** 5.056

**Q:** So what's the measured Percent Effect for this one? COCc1nc(C(=O)NS(=O)(=O)c2ccc(C)s2)cs1
**A:** -3.012

**Q:** So what's the measured Percent Effect for this one? Cc1cccc2cc(CN3CCC(O)(CN4CCCC4)CC3)c(=O)[nH]c12
**A:** -13.98

**Q:** So what's the measured Percent Effect for this one? CN1CC2(CCN(CCCOCc3ccccc3)CC2)OC1=O
**A:** 106.4

**Q:** So what's the measured Percent Effect for this one? CCc1cnc(CN2CCC(N(C)Cc3noc(C)n3)C2)o1 (stereo unspecified)
**A:** 97.22

***
**Q:** So what's the measured Percent Effect for this one? Cc1nc(C)c(S(=O)(=O)NC(=O)c2ccsc2)s1
**A:** 101.1

**Q:** So what's the measured Percent Effect for this one? O=C(O)C(F)(F)F.O=S(=O)(c1cccs1)N1Cc2nc(CN3CCCC3)oc2C1
**A:** 87.16

**Q:** So what's the measured Percent Effect for this one? COCCOCCNC(=O)C(C)Oc1ccccc1C(F)(F)F (stereo unspecified)
**A:** 0.2325

**Q:** So what's the measured Percent Effect for this one? Cc1cccn2c(=O)cc(CN3CCCC3Cn3cncn3)nc12 (stereo unspecified)
**A:** 14.6

**Q:** So what's the measured Percent Effect for this one? N#Cc1cccc(C(=O)N2CC[C@H]3[C@H]2CCN3CC2CCOCC2)c1.O=C(O)C(F)(F)F
**A:** -18.46
